Provide the reported melting point of each item.
Structures can show the parent of a compound that is named as a salt.
Numbers only, in °C.

Below, each entry is followed by its recorded melting point result.
Cc1cc(-c2cnn3c2C(=O)N(c2cccc(C(C)O)c2)C[C@@H]3C)ccn1 (stereo partly shown) : 149.7
CCOc1nc(N2C[C@H](C)n3ncc(-c4ccnc(C)c4)c3C2=O)ccc1C(F)(F)F (single isomer, unassigned) [compound 200] : 122.3

Okay, here is my list. What is melting point for each of these?
1. Cc1cc(-c2cnn3c2C(=O)N(c2ccc(C(F)(F)F)cc2)CC3)ccn1
2. C[C@H]1CN(c2ccc(Cl)c(Cl)c2)C(=O)c2c(-c3ccncc3)cnn21
3. COCc1cc(-c2cnn3c2C(=O)N(c2ccc(C(F)(F)F)cc2)C[C@@H]3C)ccn1 (as salt: HCl)
4. Cc1ccc(-c2cnn3c2C(=O)N(c2ccc(C(F)(F)F)cc2)C[C@@H]3C)cn1

Given back:
1: 137; 2: 153.2; 3: 282.3; 4: 128.2

List melting point for every entry below, keeping the order given.
1. C[C@H]1CN(c2ccc(Cl)c(Cl)c2)C(=O)c2c(-c3ccnc(CO)c3)cnn21
2. C[C@H]1CN(c2ccc(Cl)c(Cl)c2)C(=O)c2c(-c3ccnc(C(F)F)c3)cnn21
3. COc1ccc(N2C[C@H](C)n3ncc(-c4ccnc(C)c4)c3C2=O)cc1 (as salt: HCl)

Given back:
[105.4, 177.6, 294]

For every item below, please supply its melting point.
1. C[C@H]1CN(c2ccc(C(F)(F)F)cn2)C(=O)c2c(-c3ccnc(F)c3)cnn21
2. CN(C)c1cc(-c2cnn3c2C(=O)N(c2ccc(Cl)c(Cl)c2)CC3CF)ccn1 (single isomer, unassigned) [compound 90]

Given back:
146.6
93.7

----------
- target desc: human mGlu2 receptor (Homo sapiens)
- Construct: expressed in transfected cells; host or cells: CHO cells (membrane preparation)
- assay procedure: [35S]GTPγS binding assay (mGluR2 negative allosteric modulation)
- Format: biochemical
- assay setup: membranes from CHO cells transfected with human mGlu2 receptor; glutamate 60 μM; pIC50 = −log IC50 (M); read-out: GTPγS - hmGluR2 anGT pIC50 (converted)
readout name: log10(IC50) (log10 of the value in M)
Note: values are log10 of IC50 expressed in M.

Cc1cc(-c2cnn3c2C(=O)N(c2ccc(OC(F)F)cc2)C[C@@H]3C)ccn1 : -6.86
COCC1CN(c2ccc(Cl)c(Cl)c2)C(=O)c2c(-c3ccnc(C)c3)cnn21 (centres unmarked) [compound 143] : -7.61
Cc1cc(-c2cnn3c2C(=O)N(c2ccc(C(F)(F)F)cc2)CC3C(F)(F)F)ccn1 (centres unmarked) : -5.67
CCNc1cc(-c2cnn3c2C(=O)N(c2ccc(C(F)(F)F)cc2)C[C@@H]3C)ccn1 : -8.21
COc1cc(Cl)ccc1N1C[C@H](C)n2ncc(-c3ccnc(C)c3)c2C1=O : -4.81
CCc1cc(-c2cnn3c2C(=O)N(c2ccc(Cl)c(Cl)c2)C[C@@H]3C)ccn1 : -8.49

Record log10(IC50) per entry; entries follow.
1. Cc1cc(-c2cnn3c2C(=O)N(c2ccc(Br)cc2)C[C@@H]3C)ccn1
2. Cc1cc(-c2cnn3c2C(=O)N(c2cccc(Cl)c2)C[C@@H]3C)ccn1

Given back:
1. -7.44
2. -7.29

----------
For each of the molecules below, state its melting point.
Give bare numbers, in °C.

Provide the reported melting point of each entry below, same order.
1. Cc1cc(-c2cnn3c2C(=O)N(c2ccc(OCCF)c(C(F)(F)F)c2)C[C@@H]3C)ccn1
2. Cc1cc(-c2cnn3c2C(=O)N(c2ccc(Cl)c(C)c2)C[C@@H]3C)ccn1
3. COc1cc(F)cc(N2C[C@H](C)n3ncc(-c4ccnc(C)c4)c3C2=O)c1
4. Cc1cc(-c2cnn3c2C(=O)N(c2ccc(Cl)c(OC(F)(F)F)c2)C[C@@H]3C)ccn1

Given back:
[60.8, 126.7, 133, 64.7]

Give melting point for all molecules that follow.
1. Cc1cc(-c2cnn3c2C(=O)N(c2ccc(OC(F)(F)F)cc2)C[C@@H]3C)ccn1
2. CC(C)c1cc(-c2cnn3c2C(=O)N(c2ccc(Cl)c(Cl)c2)C[C@@H]3C)ccn1

Given back:
105.4
62.4

Asked: Quickly give me recorded melting point for CCOc1cc(-c2cnn3c2C(=O)N(c2ccc(C(F)(F)F)cc2)C[C@@H]3C)ccn1
Given back: 189.5

----------
- target desc: human mGlu2 receptor (Homo sapiens, UniProt Q14416)
- Construct: expressed in transfected cells; host or cells: CHO cells (membrane preparation)
- Sequence (Q14416 19-872): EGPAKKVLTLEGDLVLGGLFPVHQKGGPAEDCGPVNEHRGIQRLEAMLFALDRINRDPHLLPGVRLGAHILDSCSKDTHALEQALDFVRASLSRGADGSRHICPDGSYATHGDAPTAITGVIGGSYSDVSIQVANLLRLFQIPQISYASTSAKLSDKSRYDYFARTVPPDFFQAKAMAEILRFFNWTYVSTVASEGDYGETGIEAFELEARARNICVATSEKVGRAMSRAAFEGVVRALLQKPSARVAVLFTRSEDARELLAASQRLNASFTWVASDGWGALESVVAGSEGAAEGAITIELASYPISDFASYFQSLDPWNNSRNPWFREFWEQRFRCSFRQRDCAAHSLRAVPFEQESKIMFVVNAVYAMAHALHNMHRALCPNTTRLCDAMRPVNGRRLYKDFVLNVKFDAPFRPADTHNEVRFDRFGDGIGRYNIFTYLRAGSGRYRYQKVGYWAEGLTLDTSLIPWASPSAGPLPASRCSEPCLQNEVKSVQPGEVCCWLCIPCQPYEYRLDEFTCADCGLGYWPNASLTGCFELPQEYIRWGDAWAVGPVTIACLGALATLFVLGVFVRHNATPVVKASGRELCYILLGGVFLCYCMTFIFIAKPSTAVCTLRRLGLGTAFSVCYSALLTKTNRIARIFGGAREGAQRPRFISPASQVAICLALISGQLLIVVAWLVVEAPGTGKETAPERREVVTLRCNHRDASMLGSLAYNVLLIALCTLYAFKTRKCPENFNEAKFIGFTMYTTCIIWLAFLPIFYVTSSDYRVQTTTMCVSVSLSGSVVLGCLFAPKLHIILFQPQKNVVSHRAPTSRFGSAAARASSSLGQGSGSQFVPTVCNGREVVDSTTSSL
- assay procedure: [35S]GTPγS binding assay (mGluR2 negative allosteric modulation)
- Assay type: biochemical
- assay setup: relative maximal effect: maximal % inhibition relative to the control glutamate response; read-out: GTPγS - hmGluR2 anGT Emax
readout name: Emax (%)
One number for each entry, in %.

# example entries with known answers
Cc1cc(-c2cnn3c2C(=O)N(c2ccc(OC(F)F)cc2)C[C@@H]3C)ccn1 : 104
CCOc1cc(N2C[C@H](C)n3ncc(-c4ccnc(C)c4)c3C2=O)ccc1C(F)(F)F : 105
Cc1cc(-c2cnn3c2C(=O)N(c2ccc(Cl)c(F)c2)C[C@@H]3C)ccn1 : 105
Cc1cc(-c2cnn3c2C(=O)N(c2ccc(C(F)(F)F)cc2)CC3C(C)O)ccn1 (centres unmarked) : 97
Cc1cc(-c2cnn3c2C(=O)N(c2ccc(Cl)c(C)n2)C[C@@H]3C)ccn1 : 107

Lab note: each molecule below needs its Emax filled in.
1. CNc1cc(-c2cnn3c2C(=O)N(c2ccc(C(F)(F)F)cn2)C[C@@H]3C)ccn1
2. Cc1cc(-c2cnn3c2C(=O)N(c2cccc(OC(C)C)c2)C[C@@H]3C)ccn1
3. CNc1cc(-c2cnn3c2C(=O)N(c2ccc(Cl)c(Cl)c2)CC3CF)ccn1 (single isomer, unassigned) [compound 184]

Given back:
[105, 104, 105]

Report Emax for each item below.
1. COc1cc(-c2cnn3c2C(=O)N(c2ccc(Cl)c(Cl)c2)C[C@@H]3C)ccn1
2. C[C@H]1CN(c2ccc(Cl)c(Cl)c2)C(=O)c2c(-c3ccnc(CO)c3)cnn21
3. Cc1cc(-c2cnn3c2C(=O)N(c2ccc(C(F)(F)F)c(OC(C)C)c2)C[C@@H]3C)ccn1
4. Cc1cc(-c2cnn3c2C(=O)N(c2ccc(OCC(F)(F)F)cc2)C[C@@H]3C)ccn1
5. CNc1cc(-c2cnn3c2C(=O)N(c2ccc(C(F)(F)F)cc2)C[C@@H]3C)cc(C)n1
6. CNc1cc(-c2cnn3c2C(=O)N(c2ccc(Cl)c(Cl)c2)CC3CF)ccn1 (centres unmarked) [compound 93]
7. C[C@H]1CN(c2ccc(Cl)c(Cl)c2)C(=O)c2c(-c3ccnc(F)c3)cnn21
8. CNc1cc(-c2cnn3c2C(=O)N(c2ccc(C(F)(F)F)c(C)c2)C[C@@H]3C)ccn1

Given back:
1: 105; 2: 105; 3: 104; 4: 106; 5: 109; 6: 105; 7: 107; 8: 116

----------
- target desc: human mGlu2 receptor (Homo sapiens, UniProt Q14416)
- Construct: expressed in transfected cells; host or cells: CHO cells (membrane preparation)
- assay procedure: [35S]GTPγS binding assay (mGluR2 negative allosteric modulation)
- Format: biochemical
- assay setup: relative maximal effect: maximal % inhibition relative to the control glutamate response; read-out: GTPγS - hmGluR2 anGT Emax
readout name: Emax (%)
Answers are plain numbers, in %.

Before answering, review these 3 worked examples.
Cc1cc(-c2cnn3c2C(=O)N(c2ccc(C(F)F)c(Cl)c2)C[C@@H]3C)ccn1 : 105
CCOc1cc(-c2cnn3c2C(=O)N(c2ccc(C(F)(F)F)cc2)C[C@@H]3C)ccn1 : 107
C[C@H]1CN(c2ccc(C(F)(F)F)cn2)C(=O)c2c(-c3ccnc(F)c3)cnn21 : 104

Hello, I would appreciate it if you could give Emax for each entry below.
1. COc1nc(N2C[C@H](C)n3ncc(-c4ccnc(C)c4)c3C2=O)ccc1C(F)(F)F
2. CCOc1cc(N2C[C@H](C)n3ncc(-c4ccncc4)c3C2=O)ccc1C(F)(F)F
3. COc1cc(N2C[C@H](C)n3ncc(-c4ccnc(C)c4)c3C2=O)ccc1C(F)(F)F
4. CCC1CN(c2ccc(C(F)(F)F)cc2)C(=O)c2c(-c3ccnc(C)c3)cnn21 (stereo not shown)

Given back:
[109, 104, 104, 106]

----------
- target desc: human mGlu2 receptor (Homo sapiens, UniProt Q14416)
- Construct: expressed in transfected cells; host or cells: CHO cells (membrane preparation)
- assay procedure: [35S]GTPγS binding assay (mGluR2 negative allosteric modulation)
- Format: biochemical
- assay setup: relative maximal effect: maximal % inhibition relative to the control glutamate response; read-out: GTPγS - hmGluR2 anGT Emax
readout name: Emax (%)
One number for each entry, in %.

C[C@H]1CN(c2ccc(C(F)(F)F)cc2)C(=O)c2c(-c3ccnc(F)c3)cnn21 [compound 247] : 109

Each of the following entries comes with a recorded value; kindly state Emax for each.
1. CNc1cc(-c2cnn3c2C(=O)N(c2ccc(C(F)(F)F)cc2)C[C@@H]3C)cc(OC)n1 [compound 242]
2. CC(C)Nc1cc(-c2cnn3c2C(=O)N(c2ccc(C(F)(F)F)cc2)C[C@@H]3C)ccn1 [compound 266]
3. C[C@H]1CN(c2ccc(Cl)c(Cl)c2)C(=O)c2c(-c3ccnc(C#N)c3)cnn21 [compound 109]
4. Cc1cc(-c2cnn3c2C(=O)N(c2ccc(C(F)(F)F)c(C)n2)C[C@@H]3C)ccn1 [compound 192]

Given back:
110
106
107
106

For every record below, what is its Emax?
1. C[C@H]1CN(c2ccc(C(F)(F)F)cc2)C(=O)c2c(-c3ccnc(N)c3)cnn21 [compound 71]
2. COc1cc(F)cc(N2C[C@H](C)n3ncc(-c4ccnc(C)c4)c3C2=O)c1 [compound 85]
3. COc1cc(N2C[C@H](C)n3ncc(-c4cc(C)nc(C)c4)c3C2=O)ccc1C(F)(F)F [compound 51]

Given back:
[103, 101, 104]

Recorded values, source patent US10106542B2.
